- target-desc: hnRNPK deltaKH3 (human/mouse (100% identical), UniProt P61978 1-337)
- Sequence (P61978 1-337, stated change not applied): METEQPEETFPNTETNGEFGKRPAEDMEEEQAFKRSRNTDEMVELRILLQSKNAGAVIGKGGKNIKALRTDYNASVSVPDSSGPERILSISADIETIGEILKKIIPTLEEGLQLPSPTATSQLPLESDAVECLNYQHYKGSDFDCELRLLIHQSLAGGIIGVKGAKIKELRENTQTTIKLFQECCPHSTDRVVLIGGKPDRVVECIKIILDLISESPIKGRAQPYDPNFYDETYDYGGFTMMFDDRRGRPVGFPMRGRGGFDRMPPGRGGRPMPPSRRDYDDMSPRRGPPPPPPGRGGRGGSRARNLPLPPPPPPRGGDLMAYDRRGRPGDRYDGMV
- test-summary: fluorescence anisotropy
measured-property: pKd
pKd is a log-scale quantity: -log10 of the concentration expressed in molar.

What value of measured pKd is listed for GUCAUUUUCUCCCUUUCUGUUUUUCUUC (ssRNA) [Rab7] ?
6.44

What value of measured pKd is listed for GGUCCCCCGCCUCAUUCGCCCCUCUGCUCCC (ssRNA) [CDK6 3'UTR] ?
6.15

What value of measured pKd is listed for GGCUCCCCCGACCUCUGUGCUCCCCUCCCCCGACCUCUGUGC (ssRNA) [MYU lncRNA] ?
6.92

What value of measured pKd is listed for GCAGCCCCAGCCCCAGCCCCUACCCCUGCCCCUGCCCCUGC (structured_RNA) [B motif RNA WT] ?
6.85

What value of measured pKd is listed for GCGCCUCCCGGGUUCAAGCGAUUCUCCUGCCUCAGCCUCCCGA (ssRNA) [Sirloin motif] ?
6.12

What value of measured pKd is listed for GCCAACCUCUUCCCAUUUCCCACACUCCAACUCCCU (ssRNA) [Ucp2] ?
7.06
